System: Saccharomyces cerevisiae
Assay: protein stability index of tFT-peptide fusion (C-terminal peptide) (PSI (0-1 scale)); higher = more stable (slower turnover)
Details: genetic background: wild type; temperature: 30 C

{"columns": ["ORDERED_RESIDUES", "TARGET_OR_SYSTEM", "protein stability index"],
 "data": [
  ["DLQSLIESNGFA [PFK27 C-terminal 12 aa]", "Saccharomyces cerevisiae", 0.689],
  ["IEAATQAFLDSQ [WIP1 C-terminal 12 aa]", "Saccharomyces cerevisiae", 0.715],
  ["PTYDNNRHYGND [YFL032W C-terminal 12 aa]", "Saccharomyces cerevisiae", 0.702],
  ["DESVDMNVGISY [YCL046W C-terminal 12 aa]", "Saccharomyces cerevisiae", 0.718],
  ["AAEAKEHMQEAN [TIF34 C-terminal 12 aa]", "Saccharomyces cerevisiae", 0.69],
  ["DGKIKIWKISRN [GID7 C-terminal 12 aa]", "Saccharomyces cerevisiae", 0.711],
  ["KLCTGIVWAPRV [YAR070C C-terminal 12 aa]", "Saccharomyces cerevisiae", 0.704],
  ["STMQERFAESTD [VMA1 C-terminal 12 aa]", "Saccharomyces cerevisiae", 0.706],
  ["EYNLDTFIKTLR [MOT1 C-terminal 12 aa]", "Saccharomyces cerevisiae", 0.688],
  ["LTARKVNALRHR [KNH1 C-terminal 12 aa]", "Saccharomyces cerevisiae", 0.694],
  ["VKSDSGSSCTIM [RHO3 C-terminal 12 aa]", "Saccharomyces cerevisiae", 0.711],
  ["AIGNCVQDEEKL [AVL9 C-terminal 12 aa]", "Saccharomyces cerevisiae", 0.679]
]}

----------
Test system: Saccharomyces cerevisiae
Assay: protein stability index of tFT-peptide fusion (C-terminal peptide) (PSI (0-1 scale)); higher = more stable (slower turnover)
Conditions: genetic background: das1 deletion; temperature: 30 C
# Lookup of reported protein stability index keyed by entry

{"columns": ["ORDERED_RESIDUES", "protein stability index"],
 "data": [
  ["NNNNNNNDDDDK [CTK1 C-terminal 12 aa]", 0.694],
  ["SFTKSRIHLEFT [SPC105 C-terminal 12 aa]", 0.706],
  ["PVRMYALKPMPN [TAE1 C-terminal 12 aa]", 0.693],
  ["SSSEQITSSITS [YAR062W C-terminal 12 aa]", 0.71],
  ["KICEVAARQKWI [AAN1 C-terminal 12 aa]", 0.689],
  ["SVHPLIISYSQL [TRM732 C-terminal 12 aa]", 0.716],
  ["NEEYIEELDLVL [HSH155 C-terminal 12 aa]", 0.696],
  ["VLELSLGFTKLD [MON2 C-terminal 12 aa]", 0.714],
  ["NNASEDDRGIRV [STB2 C-terminal 12 aa]", 0.697],
  ["QTINTKPLYIKN [YGR290W C-terminal 12 aa]", 0.686],
  ["GLQFHFKAEHKD [PHO86 C-terminal 12 aa]", 0.701],
  ["ERWVRMGELMHY [YBR184W C-terminal 12 aa]", 0.686],
  ["GFRLRFWKSLGF [CYT2 C-terminal 12 aa]", 0.706],
  ["YWRKQYPDADIP [YCR007C C-terminal 12 aa]", 0.719],
  ["GNLMRSSNVLEK [SLO1 C-terminal 12 aa]", 0.685],
  ["RAEVAALAAENK [PFK1 C-terminal 12 aa]", 0.69],
  ["KFNLVTQRENSL [YGR025W C-terminal 12 aa]", 0.697],
  ["EVTSLYTNASNA [DPC29 C-terminal 12 aa]", 0.715],
  ["KKKNKNKGKKKR [SRP21 C-terminal 12 aa]", 0.686],
  ["NKVEAFKSLYTF [NUP60 C-terminal 12 aa]", 0.705],
  ["RLEQGSNGFMFA [NAM8 C-terminal 12 aa]", 0.702],
  ["EELPSDIATLLN [YKR059W; YJL138C C-terminal 12 aa]", 0.702],
  ["RNSGEKLVAVLK [YNL134C C-terminal 12 aa]", 0.691],
  ["SVVSQPPPGYEQ [HSE1 C-terminal 12 aa]", 0.71],
  ["QKLGIIGKNDLK [PSD1 C-terminal 12 aa]", 0.685],
  ["SKKDYSIDSVEM [TPO2 C-terminal 12 aa]", 0.698],
  ["EQNFHFQFPPTN [IOC2 C-terminal 12 aa]", 0.715],
  ["KKKANIPKAKSA [HUT1 C-terminal 12 aa]", 0.706],
  ["RLDRHFEKKKKV [RDS3 C-terminal 12 aa]", 0.704],
  ["SFWPHVAGELEY [INM2 C-terminal 12 aa]", 0.72]
]}
